List of normalized growth values.
# EXPERIMENT NOTES: chemical genetic growth profiling, strain panel (AID 1159580);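 further: tested at 20 µM; growth read once vehicle control cultures reached saturation at 30 °C; 1 = growth at the plate median or of vehicle wells; lower values mean less growth of the strain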
# RECORDED CONDITIONS: S. cerevisiae deletion strains, growth OD, locus YMR231W, strain pep5, active compounds read low
The whole screen tested about 5,500 compounds, of which about 2,000 (36%) were called active. Not shown: some 18% with an inconclusive outcome. The list shows a part of the results.

[
  {
    "MOLECULE": "CC(=O)OCC[C@H](C)CCC=C(C)C",
    "normalized growth": 0.983
  },
  {
    "MOLECULE": "CCCCOC(=O)c1ccccc1C(=O)OCCCC",
    "normalized growth": 0.996
  },
  {
    "MOLECULE": "O=C(Cn1ccnc1[N+](=O)[O-])NCCO",
    "normalized growth": 1.02
  },
  {
    "MOLECULE": "CCCCNc1ccc(C(=O)OCCN(C)C)cc1",
    "normalized growth": 1.02
  },
  {
    "MOLECULE": "CN1C(C(=O)Nc2ccccn2)=C(O)c2ccccc2S1(=O)=O",
    "normalized growth": 0.97
  },
  {
    "MOLECULE": "Nc1ccn(C2O[C@H](CO)[C@@H](O)[C@@H]2O)c(=O)n1 (stereo partly drawn)",
    "normalized growth": 0.989
  },
  {
    "MOLECULE": "COc1ccc([C@H]2Oc3cc(OC)cc(OC)c3C[C@H]2O)cc1",
    "normalized growth": 0.989
  },
  {
    "MOLECULE": "C[C@@H]1C(=O)OC2[C@H](O)C34[C@@H]5OC(=O)[C@@]3(O[C@@H]3OC(=O)[C@H](O)[C@@]34[C@H](C(C)(C)C)[C@H]5O)[C@]21O (stereo partly drawn)",
    "normalized growth": 0.984
  },
  {
    "MOLECULE": "CCNC(=O)CC[C@H](N)C(=O)O",
    "normalized growth": 1
  },
  {
    "MOLECULE": "CC(C)COCC(CN(Cc1ccccc1)c1ccccc1)N1CCCC1 (stereo not drawn)",
    "normalized growth": 1.04
  },
  {
    "MOLECULE": "CCCCOC(=O)c1ccc(N)cc1",
    "normalized growth": 0.931
  },
  {
    "MOLECULE": "O=C1NC(=O)C(=O)C(=O)N1",
    "normalized growth": 0.98
  },
  {
    "MOLECULE": "CCN(CC)CCOC(=O)c1ccc(N)cc1",
    "normalized growth": 0.997
  },
  {
    "MOLECULE": "O=c1cc(-c2ccccc2O)oc2cc(O)ccc12",
    "normalized growth": 0.966
  },
  {
    "MOLECULE": "COC(=O)[C@@H]1OC(=O)[C@H]2O[C@@]23[C@@]1(C)CCC1[C@@]2(C)CCC(=O)C(C)(C)C2C[C@@H](OC(C)=O)[C@]13C (stereo partly drawn)",
    "normalized growth": 0.981
  },
  {
    "MOLECULE": "NC(N)=NS(=O)(=O)c1ccc(N)cc1",
    "normalized growth": 1
  },
  {
    "MOLECULE": "C[C@H]1CC[C@@H](C(C)(C)O)CC2=C1CC[C@@H]2C",
    "normalized growth": 0.999
  },
  {
    "MOLECULE": "CCCOc1ccc(C(=O)OCCN(CC)CC)cc1N",
    "normalized growth": 1
  },
  {
    "MOLECULE": "O=c1[nH]oc2c1CCNC2",
    "normalized growth": 0.995
  },
  {
    "MOLECULE": "CC1(C)O[C@H]2[C@H](O)C[C@](O)(C(N)=O)C[C@H]2O1",
    "normalized growth": 1.01
  },
  {
    "MOLECULE": "O=C1OC2(c3ccc(O)cc3Oc3cc(O)ccc32)c2ccccc21",
    "normalized growth": 1.02
  },
  {
    "MOLECULE": "Cc1cc(-c2ccccc2)nnc1NCCN1CCOCC1",
    "normalized growth": 0.998
  },
  {
    "MOLECULE": "COc1ccc2c(c1OC)C(=O)OC2[C@H]1c2c(cc3c(c2OC)OCO3)CCN1C (stereo partly drawn)",
    "normalized growth": 1.01
  }
]

====

# EXPERIMENT NOTES: chemical genetic growth profiling, strain panel (AID 1159580);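 further: tested at 20 µM; growth read once vehicle control cultures reached saturation at 30 °C; 1 = growth at the plate median or of vehicle wells; lower values mean less growth of the strain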
# RECORDED CONDITIONS: S. cerevisiae deletion strains, growth OD, locus YKL085W, strain MDH1, active compounds read low
The campaign covered roughly 5,500 compounds. About 2,000 (36%) were called active. Inconclusive results (about 18%) are left out. The list shows a part of the results.
List of normalized growth values.

[
  {
    "MOLECULE": "CC(C)C(=O)Nc1ccc([N+](=O)[O-])c(C(F)(F)F)c1",
    "normalized growth": 0.987
  },
  {
    "MOLECULE": "CCOC(=O)[C@H](CCc1ccccc1)N[C@@H](C)C(=O)N1[C@H](C(=O)O)C[C@@H]2CCC[C@@H]21",
    "normalized growth": 1.02
  },
  {
    "MOLECULE": "Clc1cccc(Cl)c1NC1=NCCN1",
    "normalized growth": 1.06
  },
  {
    "MOLECULE": "C/C1=C\\CCC(=O)C2CC(C)(C)C2CC1 (configuration not stated)",
    "normalized growth": 1.01
  },
  {
    "MOLECULE": "COc1cc(-c2coc3cc(OCc4ccccc4)c(OC)c(O)c3c2=O)cc(OCc2ccccc2)c1OC",
    "normalized growth": 1.03
  },
  {
    "MOLECULE": "CC1(C)NC(=O)N(c2ccc([N+](=O)[O-])c(C(F)(F)F)c2)C1=O",
    "normalized growth": 0.988
  },
  {
    "MOLECULE": "O=c1[nH]oc2c1CCNC2",
    "normalized growth": 1.03
  },
  {
    "MOLECULE": "CC1(C)C2CC(=O)[C@]3(C)C(CC[C@@]4(C)[C@H](c5ccoc5)OC(=O)[C@H]5O[C@]543)[C@@]2(C)C=C[C@@H]1O (some centres not stated)",
    "normalized growth": 1.01
  },
  {
    "MOLECULE": "Cc1cccc(C)c1NC1=NCCCS1",
    "normalized growth": 0.976
  },
  {
    "MOLECULE": "COc1ccc([C@H]2Oc3cc(OC)cc(OC)c3C[C@H]2O)cc1",
    "normalized growth": 0.99
  },
  {
    "MOLECULE": "C=C1CCC2C(CC2(C)C)C(=C)CC/C1=N\\O (configuration not stated)",
    "normalized growth": 0.972
  },
  {
    "MOLECULE": "CCNC(=O)CC[C@H](N)C(=O)O",
    "normalized growth": 1.02
  },
  {
    "MOLECULE": "CCCCOC(=O)c1ccccc1C(=O)OCc1ccccc1",
    "normalized growth": 0.973
  },
  {
    "MOLECULE": "CC1OC1P(=O)(O)O (configuration not stated)",
    "normalized growth": 0.978
  },
  {
    "MOLECULE": "COc1ccc2c(c1)O[C@H]1c3ccc(OC)cc3OC[C@@H]21",
    "normalized growth": 0.98
  },
  {
    "MOLECULE": "C=C1CCC2C(CC2(C)C)C(=O)CCC1O (configuration not stated)",
    "normalized growth": 0.993
  },
  {
    "MOLECULE": "CC(C)NC[C@H](O)COc1cccc2ccccc12",
    "normalized growth": 0.999
  }
]

====

# EXPERIMENT NOTES: chemical genetic growth profiling, strain panel (AID 1159580);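 further: tested at 20 µM; growth read once vehicle control cultures reached saturation at 30 °C; 1 = growth at the plate median or of vehicle wells; lower values mean less growth of the strain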
# RECORDED CONDITIONS: S. cerevisiae deletion strains, growth OD, locus YCR088W, strain abp1
Among all 5,500 compounds or so, about 2,000 (36%) were called active. Not shown: some 18% with an inconclusive outcome. Rule as the data show it: active = normalized growth mostly below about 0.91 (no sharp cut-off); inconclusive = no clear call, values can overlap the other calls; inactive = mostly above about 0.92. This is one part of the list.
Outcome codes: true = active, false = inactive

[
  {
    "SMILES STR": "CC[C@H](C)C(=O)O[C@H]1C[C@@H](C)C=C2C=C[C@H](C)[C@H](CC[C@@H]3C[C@@H](O)CC(=O)O3)[C@H]21",
    "CAT": "false"
  },
  {
    "SMILES STR": "C[C@H]1COC2=C1C(=O)C(=O)c1c2ccc2c1CCCC2(C)C",
    "CAT": "true"
  },
  {
    "SMILES STR": "Nc1nc2ncc(=O)[nH]c2c(=O)[nH]1",
    "CAT": "false"
  }
]

====

# EXPERIMENT NOTES: chemical genetic growth profiling, strain panel (AID 1159580);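 further: tested at 20 µM; growth read once vehicle control cultures reached saturation at 30 °C; 1 = growth at the plate median or of vehicle wells; lower values mean less growth of the strain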
# RECORDED CONDITIONS: S. cerevisiae deletion strains, growth OD, locus YDR388W, active compounds read low
Hit rate of the full screen: of about 5,500 compounds, about 2,000 (36%) were called active. Inconclusive results (about 18%) are left out. This is one part of the list.

[
  {
    "MOLECULE": "CCC(C)(C)C(=O)O[C@H]1C[C@@H](C)C=C2C=C[C@H](C)[C@H](CC[C@@H]3C[C@@H](O)CC(=O)O3)[C@H]21",
    "normalized growth": 1.02
  },
  {
    "MOLECULE": "CCN(CC)CCOC(=O)c1ccc(N)cc1",
    "normalized growth": 0.997
  },
  {
    "MOLECULE": "Nc1nc2ncc(=O)[nH]c2c(=O)[nH]1",
    "normalized growth": 0.985
  },
  {
    "MOLECULE": "CCNC(=O)CC[C@H](N)C(=O)O",
    "normalized growth": 1
  },
  {
    "MOLECULE": "CC[C@H](C)C(=O)O[C@H]1C[C@@H](C)C=C2C=C[C@H](C)[C@H](CC[C@@H]3C[C@@H](O)CC(=O)O3)[C@H]21",
    "normalized growth": 0.996
  },
  {
    "MOLECULE": "C=CCSCC1Nc2cc(Cl)c(S(N)(=O)=O)cc2S(=O)(=O)N1 (stereo not drawn)",
    "normalized growth": 1.02
  },
  {
    "MOLECULE": "O=C(O)CN(CC(=O)O)Cc1cc2c(-c3ccccc3C(=O)O)c3cc(CN(CC(=O)O)CC(=O)O)c(=O)cc-3oc2cc1O",
    "normalized growth": 1.02
  },
  {
    "MOLECULE": "O=S1OCC2C(CO1)C1(Cl)C(Cl)=C(Cl)C2(Cl)C1(Cl)Cl (stereo not drawn)",
    "normalized growth": 0.981
  }
]
